Entries and their Papp A→B at 90 min, 10 μM
- MEASUREMENT DESCRIPTION: in vitro
- EXPERIMENTAL CONDITIONS: human, Caco-2, pH 7.4

// query Recorded Papp A→B at 90 min, 10 μM for `c1ccc2c(CN(CCc3c[nH]cn3)Cc3nccs3)nccc2c1` , please?
// result 5 to 10 ×10⁻⁶ cm/s

// query GET /values?readout=Papp A→B at 90 min, 10 μM&item= `NC(=O)CCN(Cc1ncccc1-c1ccccc1)[C@H]1CCCc2cccnc21`
// result 5 to 10 ×10⁻⁶ cm/s

====

- MEASUREMENT DESCRIPTION: in vitro
- EXPERIMENTAL CONDITIONS: human, Caco-2, pH 7.4
EXPERIMENTAL READOUT: Papp A→B at 90 min, 10 μM

- COMPOUND: "Cc1cccnc1CN(CCc1c[nH]cn1)Cc1nc2cc(F)ccc2n1C [Compound I-42]"
  Papp A→B at 90 min, 10 μM: "< 5 ×10⁻⁶ cm/s"
- COMPOUND: "NC(=O)CCN(Cc1ncccc1Cl)[C@H]1CCCc2cccnc21 [Compound I-24]"
  Papp A→B at 90 min, 10 μM: "> 10 ×10⁻⁶ cm/s"
- COMPOUND: "CC(c1ccccn1)N(CCC(N)=O)Cc1ccccn1 (centres unmarked) [Compound I-11]"
  Papp A→B at 90 min, 10 μM: "5 to 10 ×10⁻⁶ cm/s"

// query Sample Cc1cccnc1CN(CCc1cccc(O)n1)Cc1ncccc1C [Compound I-59] — what was its Papp A→B at 90 min, 10 μM?
// result > 10 ×10⁻⁶ cm/s

// query Consider the compound Cn1c(CN(CCc2c[nH]cn2)[C@H]2CCCc3cccnc32)nc2cc(F)ccc21 [Compound I-45] and give its measured Papp A→B at 90 min, 10 μM.
// result < 5 ×10⁻⁶ cm/s

// query // returns reported Papp A→B at 90 min, 10 μM for input Cc1cccnc1CN(CCc1c[nH]cn1)Cc1nc2ccc(F)cc2n1C [Compound I-41]
// result < 5 ×10⁻⁶ cm/s

// query Suppose we examine the compound CC(c1ccccn1)N(CCc1cnc[nH]1)Cc1nc2ccccc2[nH]1 (centres unmarked) [Compound I-7] ; what Papp A→B at 90 min, 10 μM value has been reported?
// result < 5 ×10⁻⁶ cm/s
